tested_system: TXK (Homo sapiens, UniProt P42681)
Construct: purchased Eurofins DiscoverX KINOMEscan (scanTK)
Sequence (P42681 whole entry): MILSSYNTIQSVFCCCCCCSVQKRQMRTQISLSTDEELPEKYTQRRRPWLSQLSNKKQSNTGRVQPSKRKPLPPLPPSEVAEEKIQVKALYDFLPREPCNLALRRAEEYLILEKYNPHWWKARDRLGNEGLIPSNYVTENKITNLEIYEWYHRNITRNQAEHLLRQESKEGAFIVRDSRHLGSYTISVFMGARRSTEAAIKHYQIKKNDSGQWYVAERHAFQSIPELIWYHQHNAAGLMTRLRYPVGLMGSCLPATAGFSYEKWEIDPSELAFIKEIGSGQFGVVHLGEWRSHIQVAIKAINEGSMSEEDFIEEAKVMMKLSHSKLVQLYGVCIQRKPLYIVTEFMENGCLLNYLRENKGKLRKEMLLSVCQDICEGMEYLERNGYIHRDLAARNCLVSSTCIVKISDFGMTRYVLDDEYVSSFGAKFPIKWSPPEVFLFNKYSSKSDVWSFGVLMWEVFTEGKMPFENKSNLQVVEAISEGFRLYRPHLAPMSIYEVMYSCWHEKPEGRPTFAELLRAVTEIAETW
experimental_details: KINOMEscan ScanTK
Format: binding
particulars: read-out: %Control @1000nM
test_readout: remaining binding at 1 µM (%)

| molecule | tested_system | units | readout_value |
| --- | --- | --- | --- |
| CCOC(=O)c1cnc(S(C)(=O)=O)nc1N1CCC[C@@H](n2nc(-c3ccc(Oc4ccccc4)cc3)c3c(N)ncnc32)C1 | TXK (Homo sapiens, UniProt P42681) | % | 12 |
| CNC(=O)c1cnc(S(C)(=O)=O)nc1N1CCCC(n2nc(-c3ccc(Oc4ccccc4)cc3)c3c(N)ncnc32)C1 (centres unmarked) | TXK (Homo sapiens, UniProt P42681) | % | 10 |
| Cc1cnc(S(C)(=O)=O)nc1N1CCCC(n2nc(-c3ccc(Oc4ccccc4)cc3)c3c(N)ncnc32)C1 (centres unmarked) | TXK (Homo sapiens, UniProt P42681) | % | 14 |
| C=CC(=O)N1CCC[C@@H](n2nc(-c3ccc(Oc4ccccc4)cc3)c3c(N)ncnc32)C1 [Compound 1g, Ibrutinib, reference compound] | TXK (Homo sapiens, UniProt P42681) | % | 8.7 |
| COC(=O)c1cnc(S(C)(=O)=O)nc1N1CCCC(n2nc(-c3ccc(Oc4ccccc4)cc3)c3c(N)ncnc32)C1 (centres unmarked) | TXK (Homo sapiens, UniProt P42681) | % | 11 |

Source listed as paper PMC11345841.
